SYSTEM: T1, cynomolgus soluble urokinase plasminogen activator receptor (cynomolgus suPAR) (cynomolgus, UniProt Q9GK78 23-303, limits assumed)
T1 construct: also called cynomolgus uPAR; cynoPLAUR-His
T1 sequence (Q9GK78 23-303 limits assumed): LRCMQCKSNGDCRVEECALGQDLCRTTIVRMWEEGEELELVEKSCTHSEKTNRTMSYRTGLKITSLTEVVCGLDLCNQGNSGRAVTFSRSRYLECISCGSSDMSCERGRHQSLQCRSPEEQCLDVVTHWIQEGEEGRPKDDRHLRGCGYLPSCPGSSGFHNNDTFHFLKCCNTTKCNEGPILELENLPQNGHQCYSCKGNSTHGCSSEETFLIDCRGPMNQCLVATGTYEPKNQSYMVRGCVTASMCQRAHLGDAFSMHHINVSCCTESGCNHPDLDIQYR
PROTOCOL_SUMMARY: off-rate screen of scFv clones (kdis), Octet BLI
PROPERTY_NAME: koff (s⁻¹)
Numbers only here, please. The scale is s⁻¹.

Record suPAR_DB04_F01 (scFv, V domains shown, scFv clone from phage display) VH: QVQLVQSGAEVKKPGASVKVSCKASGYTFTSYYMHWVRQAPGQGLEWMGWIDHEGGNTIYAQKFQGRVTMTRDTSTSTVYMELSSLRSEDTAVYYCARGDDVDWFVYWGQGTLVTVSS VL: DIQMTQSPSSLSASVGDRVTITCSASQSVSYMYWYQQKPGKAPKLLIYRTSNLASGVPSRFSGSGSGTDFTLTISSLQPEDFATYYCQQYHSYPPTFGGGTKVEIK . Reported koff: 4.88e-07

# binder suPAR_DB04_G04 (scFv, V domains shown, scFv clone from phage display) VH: QVQLVQSGAEVKKPGASVKVSCKASGYSFTSYYIHWVRQAPGQGLEWMGWIDHENGSTIYAQKFQGRVTMTRDTSTSTVYMELSSLRSEDTAVYYCARGYDVDWFVYWGQGTLVTVSS VL: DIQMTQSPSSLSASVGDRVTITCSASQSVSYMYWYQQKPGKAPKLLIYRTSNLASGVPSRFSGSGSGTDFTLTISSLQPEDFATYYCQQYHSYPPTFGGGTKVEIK ; its koff = 0.000342

Entry suPAR_DB04_D09 (scFv, V domains shown, scFv clone from phage display) VH: QVQLVQSGAEVKKPGASVKVSCKASGYTFTAYYMHWVRQAPGQGLEWMGWIDHENGNTIYDQKFQGRVTMTRDTSTSTVYMELSSLRSEDTAVYYCARGYDVDWFVYWGQGTLVTVSS VL: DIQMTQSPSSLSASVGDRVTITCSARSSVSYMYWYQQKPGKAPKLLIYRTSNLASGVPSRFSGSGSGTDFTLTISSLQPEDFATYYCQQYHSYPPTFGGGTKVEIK , koff reported as 0.000206

GET /value?item= suPAR_DB04_H01 (scFv, V domains shown, scFv clone from phage display) VH: QVQLVQSGAEVKKPGASVKVSCKASGYTFIGSYVHWVRQAPGQGLEWMGWIDHENGNTIYDQKFQGRVTMTRDTSTSTVYMELSSLRSEDTAVYYCARGYDVDWFVYWGQGTLVTVSS VL: DIQMTQSPSSLSASVGDRVTITCSARSSVSYMYWYQQKPGKAPKLLIYRTSSLASGVPSRFSGSGSGTDFTLTISSLQPEDFATYYCQQYHSYPPTFGGGTKVEIK &field=koff returns 0.00104

So, suPAR_DB04_G05 (scFv, V domains shown, scFv clone from phage display) VH: QVQLVQSGAEVKKPGASVKVSCKASGYNITDYYIHWVRQAPGQGLEWMGWIDPENGSTIYDQKFQGRVTMTRDTSTSTVYMELSSLRSEDTAVYYCARGYDVDWFVYWGQGTLVTVSS VL: DIQMTQSPSSLSASVGDRVTITCSARSSVSYMYWYQQKPGKAPKLLIYRTSNLQSGVPSRFSGSGSGTDFTLTISSLQPEDFATYYCQQYHSYPPTFGGGTKVEIK ? Its koff was 8.25e-05
